Test system: LNCaP
ASSAY_COMMENT: Cytotoxicity (IC50) on cancer cell growth in vitro, LNCaP
Type: cell-based, human
TEST_CONDITIONS: LNCaP prostate cancer cells in culture
MEASURED_ATTRIBUTE: IC50 (µM)
State the answer as a number, implicitly in µM.

Recall the recorded IC50 for C#CCN(C)CCCOc1ccc(Cl)cc1Cl [Clorgyline] with LNCaP and state it.
81

Hello, the source for this data is patent US12414996B2, in case you need it.
